Reported pIC50 is given for each of the following compounds.
Tested on: 186277-243-T-J2-PDC multi-cell spheroid viability
experiment-notes: Anticancer human tumor 186277-243-T-J2-PDC patient-derived colon adenocarcinoma cell line growth inhibition [PI3K]
condition-parameters: curve of first compound; second compound 0.01 µM
The value called pIC50 is obtained by taking minus log10 of the concentration in mol/L.

CC(C)NCC(C(=O)N1CCN(c2ncnc3c2C(C)CC3O)CC1)c1ccc(Cl)cc1 (stereo not given) + COc1c(OCCCN2CCOCC2)ccc2c3n(c(=NC(=O)c4cnc(N)nc4)nc12)CCN3 = 6.26

Shift focus to the following entry.
Please report the measured pIC50 for C#Cc1c(F)ccc2cc(O)cc(-c3ncc4c(N5CC6CCC(C5)N6)nc(OCC56CCCN5CC(F)C6)nc4c3F)c12 (stereo not given) + CC(Nc1ccc2c(c1)OCCn1cc(N3C(=O)OCC3C(F)F)nc1-2)C(N)=O tested on 186277-243-T-J2-PDC multi-cell spheroid viability.
7.23

* * *

Tested on: 186277-243-T-J2-PDC multi-cell spheroid viability
experiment-notes: Anticancer human tumor 186277-243-T-J2-PDC cell line growth inhibition [PI3K];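 also: spheroids exposed to compounds for seven days before viability reading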;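 as to viability, T/C: 100% = DMSO vehicle control viability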
condition-parameters: second compound 10 µM; first compound 3.16 µM; stronger effect = lower value
Reported viability, T/C is given for each of the following compounds.
Give a bare numeral; the unit % is implied.

Past entries and their recorded results:
CC1(C)CCC(CN2CCN(c3ccc(C(=O)NS(=O)(=O)c4ccc(NCC5CCOCC5)c([N+](=O)[O-])c4)c(Oc4cnc5[nH]ccc5c4)c3)CC2)=C(c2ccc(Cl)cc2)C1 + CC(Nc1ncnc2nc[nH]c12)c1cc2cccc(Cl)c2c(=O)n1-c1ccccc1 = 74.7
CC1(C)CCC(CN2CCN(c3ccc(C(=O)NS(=O)(=O)c4ccc(NCC5CCOCC5)c([N+](=O)[O-])c4)c(Oc4cnc5[nH]ccc5c4)c3)CC2)=C(c2ccc(Cl)cc2)C1 + Cc1nc(NC(=O)N2CCCC2C(N)=O)sc1-c1ccnc(C(C)(C)C(F)(F)F)c1 = 13.8
CC(Cn1ccc(-c2ccc(C#N)c(Cl)c2)n1)NC(=O)c1cc(C(C)O)[nH]n1 (stereo not given) + Cc1nc(NC(=O)N2CCCC2C(N)=O)sc1-c1ccnc(C(C)(C)C(F)(F)F)c1 = 15.8
CC(C)NCC(C(=O)N1CCN(c2ncnc3c2C(C)CC3O)CC1)c1ccc(Cl)cc1 (stereo not given) + Cc1nc(NC(=O)N2CCCC2C(N)=O)sc1-c1ccnc(C(C)(C)C(F)(F)F)c1 = 5.71

Shift focus to the following entry.
# return recorded viability, T/C for entry CC(Cn1ccc(-c2ccc(C#N)c(Cl)c2)n1)NC(=O)c1cc(C(C)O)[nH]n1 (stereo not given) + CC(Nc1ncnc2nc[nH]c12)c1cc2cccc(Cl)c2c(=O)n1-c1ccccc1
90.1

* * *

Tested on: 186277-243-T-J2-PDC multi-cell spheroid viability
experiment-notes: Anticancer human tumor 186277-243-T-J2-PDC cell line growth inhibition [PI3K];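 also: spheroids exposed to compounds for seven days before viability reading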;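 as to viability, T/C: 100% = DMSO vehicle control viability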
condition-parameters: second compound 0.0316 µM; first compound 0.01 µM; stronger effect = lower value
Reported viability, T/C is given for each of the following compounds.
Give a bare numeral; the unit % is implied.

Past entries and their recorded results:
Cn1ncnc1[C@H]1c2n[nH]c(=O)c3cc(F)cc(c23)N[C@@H]1c1ccc(F)cc1 + Cc1nc(NC(=O)N2CCCC2C(N)=O)sc1-c1ccnc(C(C)(C)C(F)(F)F)c1 = 96.9
CC(=O)c1c(C)c2cnc(Nc3ccc(N4CCNCC4)cn3)nc2n(C2CCCC2)c1=O + COc1c(OCCCN2CCOCC2)ccc2c3n(c(=NC(=O)c4cnc(N)nc4)nc12)CCN3 = 58.9
CC(C)n1nc(-c2ccc3oc(N)nc3c2)c2c(N)ncnc21 + CC(Nc1ccc2c(c1)OCCn1cc(N3C(=O)OCC3C(F)F)nc1-2)C(N)=O = 89.9

# return recorded viability, T/C for entry CCN1CCN(Cc2ccc(Nc3ncc(F)c(-c4cc(F)c5nc(C)n(C(C)C)c5c4)n3)nc2)CC1 + COc1c(OCCCN2CCOCC2)ccc2c3n(c(=NC(=O)c4cnc(N)nc4)nc12)CCN3
59.7

# return recorded viability, T/C for entry CC(=O)c1c(C)c2cnc(Nc3ccc(N4CCNCC4)cn3)nc2n(C2CCCC2)c1=O + CC(Nc1ncnc2nc[nH]c12)c1cc2cccc(Cl)c2c(=O)n1-c1ccccc1
97.2

# return recorded viability, T/C for entry CC(C)n1nc(-c2ccc3oc(N)nc3c2)c2c(N)ncnc21 + Cc1nc(NC(=O)N2CCCC2C(N)=O)sc1-c1ccnc(C(C)(C)C(F)(F)F)c1
101

* * *

Tested on: 186277-243-T-J2-PDC multi-cell spheroid viability
experiment-notes: Anticancer human tumor 186277-243-T-J2-PDC cell line growth inhibition [PI3K];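 also: spheroids exposed to compounds for seven days before viability reading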;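 as to viability, T/C: 100% = DMSO vehicle control viability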
condition-parameters: second compound 0.1 µM; first compound 0.0949 µM; stronger effect = lower value
assay-readout: viability, T/C

Cn1cnc2c(F)c(Nc3ccc(Br)cc3Cl)c(C(=O)NOCCO)cc21 + CC(Nc1ccc2c(c1)OCCn1cc(N3C(=O)OCC3C(F)F)nc1-2)C(N)=O = 22.4%
Cn1cnc2c(F)c(Nc3ccc(Br)cc3Cl)c(C(=O)NOCCO)cc21 + CC(Nc1ncnc2nc[nH]c12)c1cc2cccc(Cl)c2c(=O)n1-c1ccccc1 = 56.4%
Cn1cnc2c(F)c(Nc3ccc(Br)cc3Cl)c(C(=O)NOCCO)cc21 + COc1c(OCCCN2CCOCC2)ccc2c3n(c(=NC(=O)c4cnc(N)nc4)nc12)CCN3 = 5.32%

Shift focus to the following entry.
# return recorded viability, T/C for entry Cn1cnc2c(F)c(Nc3ccc(Br)cc3Cl)c(C(=O)NOCCO)cc21 + Cc1nc(NC(=O)N2CCCC2C(N)=O)sc1-c1ccnc(C(C)(C)C(F)(F)F)c1
42.1%

* * *

Reported viability, T/C is given for each of the following molecules.
Test system: 186277-243-T-J2-PDC multi-cell spheroid viability
experiment-notes: Anticancer human tumor 186277-243-T-J2-PDC cell line growth inhibition [PI3K];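 also: spheroids exposed to compounds for seven days before viability reading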;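 as to viability, T/C: 100% = DMSO vehicle control viability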
condition-parameters: second compound 3.16 µM; first compound 3.16 µM; stronger effect = lower value
Give a bare numeral; the unit % is implied.

Past entries and their recorded results:
CC1(C)CCC(CN2CCN(c3ccc(C(=O)NS(=O)(=O)c4ccc(NCC5CCOCC5)c([N+](=O)[O-])c4)c(Oc4cnc5[nH]ccc5c4)c3)CC2)=C(c2ccc(Cl)cc2)C1 + CC(Nc1ncnc2nc[nH]c12)c1cc2cccc(Cl)c2c(=O)n1-c1ccccc1 = 85.9
CC(Cn1ccc(-c2ccc(C#N)c(Cl)c2)n1)NC(=O)c1cc(C(C)O)[nH]n1 (configuration not stated) + CC(Nc1ncnc2nc[nH]c12)c1cc2cccc(Cl)c2c(=O)n1-c1ccccc1 = 106
CCCS(=O)(=O)Nc1ccc(F)c(C(=O)c2c[nH]c3ncc(-c4ccc(Cl)cc4)cc23)c1F + CC(Nc1ncnc2nc[nH]c12)c1cc2cccc(Cl)c2c(=O)n1-c1ccccc1 = 84.8
C=CC(=O)N1CCN(c2nc(=O)n(-c3c(C)ccnc3C(C)C)c3nc(-c4c(O)cccc4F)c(F)cc23)C(C)C1 (configuration not stated) + Cc1nc(NC(=O)N2CCCC2C(N)=O)sc1-c1ccnc(C(C)(C)C(F)(F)F)c1 = 41.1

Please report the measured viability, T/C for Cn1nccc1Nc1nccc(-c2ccn(C(CO)c3ccc(Cl)c(F)c3)c(=O)c2)n1 (configuration not stated) + Cc1nc(NC(=O)N2CCCC2C(N)=O)sc1-c1ccnc(C(C)(C)C(F)(F)F)c1 tested on 186277-243-T-J2-PDC multi-cell spheroid viability.
8.12

Please report the measured viability, T/C for C#Cc1c(F)ccc2cc(O)cc(-c3ncc4c(N5CC6CCC(C5)N6)nc(OCC56CCCN5CC(F)C6)nc4c3F)c12 (configuration not stated) + CC(Nc1ncnc2nc[nH]c12)c1cc2cccc(Cl)c2c(=O)n1-c1ccccc1 tested on 186277-243-T-J2-PDC multi-cell spheroid viability.
7.19

Please report the measured viability, T/C for CNC(=O)c1ccc(N2C(=S)N(c3ccc(C#N)c(C(F)(F)F)c3)C(=O)C2(C)C)cc1F + CC(Nc1ncnc2nc[nH]c12)c1cc2cccc(Cl)c2c(=O)n1-c1ccccc1 tested on 186277-243-T-J2-PDC multi-cell spheroid viability.
118

Please report the measured viability, T/C for CC1(C)CCC(Nc2ncc(C(F)(F)F)c(-c3c[nH]c4c(P(C)(C)=O)c(C#N)ccc34)n2)CN1 (configuration not stated) + Cc1nc(NC(=O)N2CCCC2C(N)=O)sc1-c1ccnc(C(C)(C)C(F)(F)F)c1 tested on 186277-243-T-J2-PDC multi-cell spheroid viability.
8.8

Please report the measured viability, T/C for CCCS(=O)(=O)Nc1ccc(F)c(C(=O)c2c[nH]c3ncc(-c4ccc(Cl)cc4)cc23)c1F + Cc1nc(NC(=O)N2CCCC2C(N)=O)sc1-c1ccnc(C(C)(C)C(F)(F)F)c1 tested on 186277-243-T-J2-PDC multi-cell spheroid viability.
65.6

Please report the measured viability, T/C for C=CC(=O)N1CCN(c2nc(=O)n(-c3c(C)ccnc3C(C)C)c3nc(-c4c(O)cccc4F)c(F)cc23)C(C)C1 (configuration not stated) + CC(Nc1ncnc2nc[nH]c12)c1cc2cccc(Cl)c2c(=O)n1-c1ccccc1 tested on 186277-243-T-J2-PDC multi-cell spheroid viability.
107
